Data origin: the supplement of paper PMC6555819

# System: PPARg:RXRa IVT, anti-PPARg (NR concentration 270 nM, RXRa partner concentration 90 nM)
# assay: PBM binding z-score (relative to random genomic background probes); higher = stronger binding; sequences stand for … in GC…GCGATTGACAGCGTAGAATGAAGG
Assignment: determine reported PBM binding z-score for the given sequences.
Give bare numbers.

Known results for sequences:
stdin: Request the reported PBM binding z-score associated with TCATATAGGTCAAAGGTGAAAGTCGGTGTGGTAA
stdout: 7.84

stdin: Request the reported PBM binding z-score associated with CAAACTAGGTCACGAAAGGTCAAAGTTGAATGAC
stdout: 9.01

stdin: Request the reported PBM binding z-score associated with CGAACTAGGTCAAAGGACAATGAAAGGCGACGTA
stdout: 8.35

Give one value of PBM binding z-score per listed sequence.
1. CGTGCAAGGTCAGAGAGGTCAGTGAATGCCGAGT
2. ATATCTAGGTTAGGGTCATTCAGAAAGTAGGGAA
3. CCAAGTAGGTTACGAGGGGGCATTCAGTGCGAAT
4. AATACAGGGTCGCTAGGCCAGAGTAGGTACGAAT
5. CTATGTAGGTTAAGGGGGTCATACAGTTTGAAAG

stdout:
1: 3.68; 2: 6.95; 3: 6.44; 4: 1.16; 5: 7.1

Give one value of PBM binding z-score per listed sequence.
1. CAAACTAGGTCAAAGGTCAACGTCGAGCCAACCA
2. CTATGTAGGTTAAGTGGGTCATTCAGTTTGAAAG
3. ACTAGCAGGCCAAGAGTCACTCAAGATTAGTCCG

stdout:
9.1
7.89
0.847

Give one value of PBM binding z-score per listed sequence.
1. CGAACTAGGTCACCAGGACAGTGCAGAGGTTGGA
2. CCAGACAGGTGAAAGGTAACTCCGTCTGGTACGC
3. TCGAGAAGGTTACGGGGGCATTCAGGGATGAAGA
4. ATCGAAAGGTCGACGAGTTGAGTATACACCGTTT
5. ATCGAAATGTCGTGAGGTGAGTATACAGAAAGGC

stdout:
1. 8.75
2. 2.94
3. 4.73
4. 1.57
5. 0.356

----------
# System: PPARg:RXRa IVT, anti-PPARg (NR concentration 270 nM, RXRa partner concentration 90 nM)
# assay: PBM binding z-score (relative to random genomic background probes); higher = stronger binding; sequences stand for … in GC…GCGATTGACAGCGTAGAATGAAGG
Assignment: determine reported PBM binding z-score for the given sequences.
Answers are plain numbers.

Known results for sequences:
stdin: Request the reported PBM binding z-score associated with CCTTACGGGTAACTCCAGGTTATAGCATCGGAGT
stdout: 0.565

stdin: Request the reported PBM binding z-score associated with AGTCAAAGTTCTTCTAGGTAACGTAAGATATGCT
stdout: 1.89

stdin: Request the reported PBM binding z-score associated with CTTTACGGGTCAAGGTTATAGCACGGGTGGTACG
stdout: 4.39

stdin: Request the reported PBM binding z-score associated with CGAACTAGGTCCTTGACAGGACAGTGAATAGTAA
stdout: 2.67

stdin: Request the reported PBM binding z-score associated with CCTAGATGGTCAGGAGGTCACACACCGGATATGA
stdout: 2.88

Give one value of PBM binding z-score per listed sequence.
1. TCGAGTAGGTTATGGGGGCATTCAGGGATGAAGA
2. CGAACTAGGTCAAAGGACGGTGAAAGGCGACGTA
3. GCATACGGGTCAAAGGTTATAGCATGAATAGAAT
4. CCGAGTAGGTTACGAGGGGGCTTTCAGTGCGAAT
5. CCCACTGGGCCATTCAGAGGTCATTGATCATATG
6. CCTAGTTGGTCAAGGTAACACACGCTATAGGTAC
7. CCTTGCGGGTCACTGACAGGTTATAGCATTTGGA
8. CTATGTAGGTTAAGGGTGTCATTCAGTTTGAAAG

stdout:
5.17
8.31
6.5
4.3
4.55
1.92
5.29
7.59

Give one value of PBM binding z-score per listed sequence.
1. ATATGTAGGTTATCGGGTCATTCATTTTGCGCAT
2. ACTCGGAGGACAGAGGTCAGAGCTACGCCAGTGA
3. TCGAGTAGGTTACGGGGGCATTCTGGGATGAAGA
4. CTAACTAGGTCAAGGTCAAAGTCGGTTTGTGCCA

stdout:
1. 7.84
2. 2.43
3. 5.91
4. 8.88

Give one value of PBM binding z-score per listed sequence.
1. CGAAGTAGGTCAAAGGACAGTGAAAGGCGACGTA
2. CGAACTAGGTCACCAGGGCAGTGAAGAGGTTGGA
3. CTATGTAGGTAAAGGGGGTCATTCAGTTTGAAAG
4. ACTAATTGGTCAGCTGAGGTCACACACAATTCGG
5. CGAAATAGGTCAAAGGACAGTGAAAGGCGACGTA

stdout:
[8.72, 8.88, 7.06, 2.86, 7.35]

----------
# Tested on: PPARg:RXRa 30nM:10nM, anti-RXR (NR concentration 30 nM, RXRa partner concentration 10 nM)
# assay: PBM binding z-score (relative to random genomic background probes); higher = stronger binding; sequences stand for … in GC…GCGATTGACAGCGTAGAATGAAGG
experimentalEndpoint: PBM binding z-score
Numbers only.

Known results for sequences:
stdin: Request the reported PBM binding z-score associated with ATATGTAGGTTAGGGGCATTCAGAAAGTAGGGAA
stdout: 2.78

stdin: Request the reported PBM binding z-score associated with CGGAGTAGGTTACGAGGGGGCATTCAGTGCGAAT
stdout: 2.85

stdin: Request the reported PBM binding z-score associated with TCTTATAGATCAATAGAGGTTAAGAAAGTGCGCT
stdout: 3.21

stdin: Request the reported PBM binding z-score associated with CCGAGTAGGTTACGAGGTGGCATTCAGTGCGAAT
stdout: 0.157

stdin: Request the reported PBM binding z-score associated with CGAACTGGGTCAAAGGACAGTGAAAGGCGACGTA
stdout: 7.98

stdin: Request the reported PBM binding z-score associated with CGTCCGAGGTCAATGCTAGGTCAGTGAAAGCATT
stdout: 1.89

stdin: Request the reported PBM binding z-score associated with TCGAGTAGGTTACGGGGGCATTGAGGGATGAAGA
stdout: 3.59

stdin: Request the reported PBM binding z-score associated with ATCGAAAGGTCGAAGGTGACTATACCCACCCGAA
stdout: 2.71

Give one value of PBM binding z-score per listed sequence.
1. CCTACTGGGCCACGTAAGGTCATTGATTCAGTGA
2. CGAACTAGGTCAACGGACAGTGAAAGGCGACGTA
3. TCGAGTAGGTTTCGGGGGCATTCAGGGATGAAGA
4. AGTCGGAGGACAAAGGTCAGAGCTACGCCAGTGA

stdout:
[0.808, 4.42, 2.29, 5.94]

----------
Assignment: determine reported PBM binding z-score for the given sequences.
# System: PPARg DBDmut:RXRa IVT, anti-PPARg (DBD mutation: PPARg1 K132A/R137A, NR concentration 270 nM, RXRa partner concentration 90 nM)
# assay: PBM binding z-score (relative to random genomic background probes); higher = stronger binding; sequences stand for … in GC…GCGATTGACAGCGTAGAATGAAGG
One number for each entry.

Known results for sequences:
stdin: Request the reported PBM binding z-score associated with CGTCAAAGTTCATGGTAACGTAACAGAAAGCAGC
stdout: 1.17

stdin: Request the reported PBM binding z-score associated with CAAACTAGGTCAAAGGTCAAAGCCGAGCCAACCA
stdout: 2.64

stdin: Request the reported PBM binding z-score associated with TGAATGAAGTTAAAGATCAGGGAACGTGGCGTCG
stdout: 0.102

stdin: Request the reported PBM binding z-score associated with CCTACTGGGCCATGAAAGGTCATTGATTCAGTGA
stdout: 0.322

stdin: Request the reported PBM binding z-score associated with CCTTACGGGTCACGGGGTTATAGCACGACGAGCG
stdout: 4.69

stdin: Request the reported PBM binding z-score associated with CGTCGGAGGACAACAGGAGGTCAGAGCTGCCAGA
stdout: -1.5

Give one value of PBM binding z-score per listed sequence.
1. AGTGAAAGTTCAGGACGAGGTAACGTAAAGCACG
2. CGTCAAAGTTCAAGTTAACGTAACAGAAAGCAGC
3. CGTCCAACGTCAAGGTCAGTGAAAGAGACTCGAA
4. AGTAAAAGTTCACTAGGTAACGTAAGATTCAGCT

stdout:
0.759
0.474
-0.79
0.938

Give one value of PBM binding z-score per listed sequence.
1. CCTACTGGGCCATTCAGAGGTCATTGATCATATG
2. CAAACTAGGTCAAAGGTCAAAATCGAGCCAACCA
3. ACTTGGAGGACAAAGGTCAGAGCTACGCCAGTGA
4. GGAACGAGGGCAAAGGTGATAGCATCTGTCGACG
5. TTACAAAGGTGAAAGGTCGTTGATGCACGCCTTG
6. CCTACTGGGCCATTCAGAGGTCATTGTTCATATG

stdout:
[0.046, 5.76, 1.39, 0.379, 1.51, 0.178]

Give one value of PBM binding z-score per listed sequence.
1. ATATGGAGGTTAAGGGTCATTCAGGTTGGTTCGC
2. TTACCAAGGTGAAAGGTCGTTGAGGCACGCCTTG
3. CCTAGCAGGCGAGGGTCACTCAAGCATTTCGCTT

stdout:
3.41
0.87
-1.61
